molecular target: EGFR (Homo sapiens); construct: Add 7 ug A431 cell lysate per well (EGFR source); endogenous in cells; host or cells: A431; assay: EGFR ELISA assay (in vitro kinase activity, EGFR captured from A431 cell lysate); format: biochemical; design: concentration or dose not given beside the values
Sequence (P00533 25-1210): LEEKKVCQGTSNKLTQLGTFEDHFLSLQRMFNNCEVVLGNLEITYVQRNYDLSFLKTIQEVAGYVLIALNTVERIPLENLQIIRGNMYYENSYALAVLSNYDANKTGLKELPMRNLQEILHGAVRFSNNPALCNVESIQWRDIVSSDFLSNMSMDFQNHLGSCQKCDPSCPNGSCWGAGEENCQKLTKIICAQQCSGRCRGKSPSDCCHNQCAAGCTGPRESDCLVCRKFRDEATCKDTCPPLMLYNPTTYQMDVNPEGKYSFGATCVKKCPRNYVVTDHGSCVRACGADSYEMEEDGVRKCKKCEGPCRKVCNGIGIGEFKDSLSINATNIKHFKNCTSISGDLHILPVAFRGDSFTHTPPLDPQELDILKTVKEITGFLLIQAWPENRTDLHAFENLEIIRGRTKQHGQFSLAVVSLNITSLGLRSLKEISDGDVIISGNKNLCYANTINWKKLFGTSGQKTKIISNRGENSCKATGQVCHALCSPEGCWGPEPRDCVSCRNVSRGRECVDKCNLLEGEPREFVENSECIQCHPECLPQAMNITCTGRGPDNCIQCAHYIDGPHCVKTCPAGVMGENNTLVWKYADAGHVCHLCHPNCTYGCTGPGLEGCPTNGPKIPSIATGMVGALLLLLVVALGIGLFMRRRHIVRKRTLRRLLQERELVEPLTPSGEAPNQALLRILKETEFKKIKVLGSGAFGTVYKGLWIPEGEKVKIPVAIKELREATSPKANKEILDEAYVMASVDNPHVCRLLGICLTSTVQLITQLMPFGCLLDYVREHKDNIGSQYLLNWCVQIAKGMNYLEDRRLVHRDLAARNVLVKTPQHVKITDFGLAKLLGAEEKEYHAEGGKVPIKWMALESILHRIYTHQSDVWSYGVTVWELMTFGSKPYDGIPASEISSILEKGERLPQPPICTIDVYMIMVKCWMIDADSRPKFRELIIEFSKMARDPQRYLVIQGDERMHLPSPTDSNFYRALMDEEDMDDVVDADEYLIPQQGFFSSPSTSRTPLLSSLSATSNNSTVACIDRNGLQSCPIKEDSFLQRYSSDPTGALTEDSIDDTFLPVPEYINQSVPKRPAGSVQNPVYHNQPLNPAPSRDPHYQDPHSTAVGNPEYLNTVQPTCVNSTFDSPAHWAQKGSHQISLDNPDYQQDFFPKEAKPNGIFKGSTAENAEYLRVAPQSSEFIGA

| Compound | Output unit | Biochem EGFR %Inhibition |
| --- | --- | --- |
| COc1c(Cl)cc(C=C2C(=O)Nc3ccc(Br)c(C)c32)cc1C(C)(C)C [10732/C09] | % | -3.9 |
| Cc1c(Br)ccc2c1C(=Cc1nn(C)cc1Cl)C(=O)N2 [10721/C03] | % | 64.6 |
| O=C1Nc2ccc(S(=O)(=O)N3CCOCC3)cc2C1=Cc1ccc(F)cc1 [10717/F05] | % | -20.1 |
| CNS(=O)(=O)c1ccc2c(c1)C(=Cc1ccc(-c3ccccc3Cl)o1)C(=O)N2 [10730/D07] | % | 43.0 |
| CC(C)c1ccc2occ(C=C3C(=O)Nc4ccc(S(=O)(=O)Nc5ccc(C(F)(F)F)cc5)cc43)c(=O)c2c1 [10731/E05] | % | 17.7 |
| CCOC(=O)c1c(C)[nH]c(C=C2C(=O)Nc3c(Br)cc(Br)cc32)c1C [10718/A02] | % | 11.3 |
| O=C1Nc2c(Br)cc(Br)cc2C1=Cc1c(F)cccc1C(F)(F)F [10728/A09] | % | 19.3 |
| CC(C)(C)c1cc(C=C2C(=O)Nc3ccc(CCCl)cc32)cc(C(C)(C)C)c1OCc1ccccc1 [10733/G05] | % | 1.5 |
| O=C1Nc2c(Br)cc(Br)cc2C1=Cc1ccc(O)c(O)c1 [10719/A03] | % | 67.7 |
| COc1cc(Br)c(O)c(C=C2C(=O)Nc3ccc(S(=O)(=O)N4CCOCC4)cc32)c1 [10718/F03] | % | 22.5 |
| CCOC(=O)CCc1c(C(=O)OCC)[nH]c(C=C2C(=O)Nc3ccc(S(=O)(=O)NC)cc32)c1CC(=O)OCC [10718/D05] | % | 2.8 |
| O=C1Nc2ccc(F)cc2C1=C1C(=O)Nc2ccc(CCCl)cc21 [10726/G08] | % | -2.7 |
